assay: in vitro; settings: human, MT4 cells
What selectivity ratio was measured for each of the following?

Noted for O=C(c1ccccc1)c1cc(F)ccc1OCCn1ccc(=O)[nH]c1=O : its selectivity ratio reads > 694

Noted for Cc1cc(C)cc(C(=O)c2cc(C)ccc2OCCn2ccc(=O)[nH]c2=O)c1 : its selectivity ratio reads 3080

Noted for O=C(c1ccccc1)c1cc(Cl)ccc1OCCn1ccc(=O)[nH]c1=O : its selectivity ratio reads > 3790

Noted for O=C(c1cc(Cl)cc(Cl)c1)c1cc(Cl)ccc1OCCn1ccc(=O)[nH]c1=O : its selectivity ratio reads > 15800

Noted for Cc1ccc(OCCn2ccc(=O)[nH]c2=O)c(C(=O)c2ccccc2)c1 : its selectivity ratio reads > 1140

Where do the numbers come from? From ChEMBL document CHEMBL1833830.
